Details: in sec-butanol, 283.15 K
READOUT LABEL: solubility (mole fraction)
Kindly provide the number alone.

Prompt: Look up and report measured solubility (mole fraction) for this entry: "COc1cc(CC#N)cc(OC)c1OC"
Completion: 0.00911

----------
Conditions: in n-hexane, 303.15 K
READOUT LABEL: solubility (mole fraction)
Kindly provide the number alone.

Prompt: Look up and report measured solubility (mole fraction) for this entry: "COc1cc(CC#N)cc(OC)c1OC"
Completion: 0.00233

----------
Details: in isopropanol, 323.15 K
READOUT LABEL: solubility (mole fraction)
Kindly provide the number alone.

Prompt: Look up and report measured solubility (mole fraction) for this entry: "COc1cc(CC#N)cc(OC)c1OC"
Completion: 0.146

These data points were gathered from BigSolDB 2.1.
